organism: Homo sapiens; assay: IC50 ratio between CDK4 and GSK-3
Please respond with reported Selectivity for every item in the list.
Give only the figure.

Lab note: CC(=O)N1CCn2cc(C3=C(c4cncc5ccoc45)C(=O)NC3=O)c3cccc(c32)C1 gave Selectivity of 60

The compound identified as O=C1NC(=O)C(c2cn3c4c(cccc24)CNCC3)=C1c1ccc2c(c1)OCO2 registered its Selectivity at 18

Value of measured Selectivity for the entry O=C1NC(=O)C(c2cnc3ccccn23)=C1c1cn2c3c(cccc13)CN(C(=O)N1CCCCC1)CC2 : 2420

Record summary for O=C1NC(=O)C(c2cnc3ccncn23)=C1c1cn2c3c(cccc13)CNCC2 : reported Selectivity = 14

Sample CN(C)C(=O)N1CCn2cc(C3=C(c4cnc5ccccn45)C(=O)NC3=O)c3cccc(c32)C1 ; Selectivity observed: 907

Quick note, Selectivity for O=C1NC(=O)C(c2cnc3ccccn23)=C1c1cn2c3c(cccc13)CNCC2 landed at 13

The compound listed as O=C1NC(=O)C(c2ccn3ncccc23)=C1c1cn2c3c(cccc13)CNCC2 has a reported Selectivity of 10

Memo: O=C1NC(=O)C(c2cnc3cccnn23)=C1c1cn2c3c(cccc13)CNCC2 , reported Selectivity: 15

Item: CC(=O)N1CCn2cc(C3=C(c4cccc5c4OCC5)C(=O)NC3=O)c3cccc(c32)C1 | Selectivity: 77
